System: Plasmodium falciparum
measurement notes: antimalaria activity on in vitro cultures, [3H]-hypoxanthine incorporation
Format: cell-based
condition context: 72 h, inhibition of [3H]-hypoxanthine incorporation, 48 + 24 hours, read-out: IC50(nM) of malaria culture (Plasmodium falciparum)
# strict inequality: IC50 < 1000 nM yields Y, everything else yields N

Examples with answers:
>  <compound>
CC1CON(CCCP(=O)(O)O)C1=O (centres unmarked) [Compound 5]

>  <category label>
N

$$$$
>  <compound>
CC1CON(COCP(C)(=O)O)C1=O (centres unmarked) [Compound 3]

>  <category label>
N

$$$$
>  <compound>
O=C1CCON1CC(O)CP(=O)(O)O (centres unmarked) [Compound 2]

>  <category label>
N

$$$$
>  <compound>
CN(C)CC(=O)CN1OCCC(C)(C)C1=O [Compound 8]

>  <category label>
Y

$$$$
>  <compound>
CC1(C)CON(C(=O)CP(C)(=O)O)C1=O [Compound 1]

>  <category label>
Y

$$$$

Task: Quick check: does CC(C)N(C)CCCN1OCCC1=O [Compound 7] have IC50 under 1000 nM?
Output: Y

Task: Quick check: does CP(=O)(O)CCCN1OCCCC1=O [Compound 4] have IC50 under 1000 nM?
Output: N

Task: Quick check: does CN(C)CCCN1OCCCC1=O [Compound 6] have IC50 under 1000 nM?
Output: N

Just for reference, patent US6638957B1 is where these values come from.
